Procedure summary: Kinetic solubility in biorelevant media (FaSSIF, FeSSIF) with and without HPMC E5
Type: physicochemical
Experimental setup: FeSSIF with HPMC E5, aqueous with cosolvent or surfactant or cyclodextrin, thermodynamic from solid; FeSSIF pH 5.0, HPMC E5 1.39 mg/mL, 37° C., as μg rilematovir/mL; read-out: kinetic solubility, concentration at 30 minutes
Measurement type: solubility kinetic at 30 min (µg/mL)

>>> assay_result("CS(=O)(=O)CCCn1c(Cn2c(=O)n(CC(F)(F)F)c3ccncc32)cc2cc(Cl)ccc21 [rilematovir]")
12.3

* * *

Procedure summary: Kinetic solubility in biorelevant media (FaSSIF, FeSSIF) with and without HPMC E5
Assay type: physicochemical
Experimental setup: aqueous with cosolvent or surfactant or cyclodextrin, thermodynamic from solid; FeSSIF pH 5.0, HPMC E5 1.39 mg/mL, 37° C., as μg rilematovir/mL; read-out: kinetic solubility, concentration at 120 minutes
Measurement type: solubility kinetic at 120 min

>>> assay_result("CS(=O)(=O)CCCn1c(Cn2c(=O)n(CC(F)(F)F)c3ccncc32)cc2cc(Cl)ccc21.O=C(O)C(O)C(O)C(=O)O [hemi (L)-tartrate form of rilematovir]")
"689 µg/mL"

* * *

Procedure summary: Kinetic solubility in biorelevant media (FaSSIF, FeSSIF) with and without HPMC E5
Format: physicochemical
Experimental setup: thermodynamic from solid; FeSSIF pH 5.0, no HPMC E5, 37° C., as μg rilematovir/mL; read-out: kinetic solubility, concentration at 120 minutes
Measurement type: solubility kinetic at 120 min (µg/mL)

>>> assay_result("CS(=O)(=O)CCCn1c(Cn2c(=O)n(CC(F)(F)F)c3ccncc32)cc2cc(Cl)ccc21")
13.7
>>> assay_result("CS(=O)(=O)CCCn1c(Cn2c(=O)n(CC(F)(F)F)c3ccncc32)cc2cc(Cl)ccc21.O=C(O)C(O)C(O)C(=O)O [hemi (L)-tartrate form of rilematovir]")
58.6

* * *

Procedure summary: Equilibrium (thermodynamic) solubility in fed state human intestinal fluids
Type: physicochemical
Experimental setup: human, fed state human intestinal fluids (Fed HR pool), 37 °C, plasma or biological fluid, thermodynamic from solid, Fed HR pool human intestinal fluids, 37° C., 24 hours, single determinations; read-out: solubility Conc
Method: Determination of the equilibrium solubility of rilematovir in its free base form and its hemi (L)-tartrate form in fed state human intestinal fluids. The thermodynamic solubility of rilematovir and the hemi (L)-tartrate form of rilematovir was determined using human intestinal fluids obtained from human volunteers in fed state. […] The pH was measured at the end of the experiment for each condition (pHend in Table 1).
Measurement type: solubility at 24 h (µg/mL)

>>> assay_result("CS(=O)(=O)CCCn1c(Cn2c(=O)n(CC(F)(F)F)c3ccncc32)cc2cc(Cl)ccc21 [rilematovir]")
34

* * *

Procedure summary: Kinetic solubility in biorelevant media (FaSSIF, FeSSIF) with and without HPMC E5
Assay type: physicochemical
Experimental setup: aqueous with cosolvent or surfactant or cyclodextrin, thermodynamic from solid; FaSSIF pH 6.5, HPMC E5 1.39 mg/mL, 37° C., as μg rilematovir/mL; read-out: kinetic solubility, concentration at 30 minutes
Method: The kinetic solubility of rilematovir and the hemi (L)-tartrate form of rilematovir in different biorelevant medium (FaSSIF and FeSSIF) in the presence or absence of HPMC E5 was analysed. […] The media were stirred at 150 rpm at a temperature of 37° C. […] The concentration of rilematovir, or the hemi (L)-tartrate form of rilematovir, in solution was determined using UPLC-UV.
Measurement type: solubility kinetic at 30 min (mg/mL)

>>> assay_result("CS(=O)(=O)CCCn1c(Cn2c(=O)n(CC(F)(F)F)c3ccncc32)cc2cc(Cl)ccc21.O=C(O)C(O)C(O)C(=O)O [hemi (L)-tartrate form of rilematovir]")
0.108
